// cross-study collection: IC50 for Proto-oncogene tyrosine-protein kinase Src (Homo sapiens, UniProt P12931)

Some solved cases for reference:
| Compound | Observed value |
| --- | --- |
| O=C(c1c(F)ccc(NS(=O)(=O)N2CCCC2)c1F)c1c[nH]c2nccc(Cl)c12 | ≤ 10000 nM |
| COCCOc1cccc(-n2nc(C(C)(C)C)cc2NC(=O)Nc2ccc(Oc3ccnc(Nc4cc(C)c5[nH]ncc5c4)c3)c3ccccc23)c1 | 19 nM |
| O=C(c1c(F)ccc(NS(=O)(=O)c2ccccc2)c1F)c1c[nH]c2ncc(-c3cccnc3)cc12 | ≤ 10000 nM |
| C=CC(=O)Nc1ccccc1CNc1nc(Nc2ccc(N3CCN(C)CC3)cc2)ncc1C(=O)Nc1c(C)cccc1Cl | 1 to 10 nM |
| CCN(CC)CCOc1ccc(Nc2ncc3cc(-c4ccccc4Br)c(C(N)=O)nc3n2)cc1 | 4.4 nM |
| COc1cc(-c2cc3nccc(-c4cc(O)cc(C(=O)NCCN)c4)c3o2)cc(OC)c1OC | 300 to 3000 nM |

Q: API: value(readout=IC50, system=Proto-oncogene tyrosine-protein kinase Src (Homo sapiens, UniProt P12931)) for record CCC(C)NC(=O)Nc1ccc(F)c(C(=O)c2c[nH]c3ncc(-c4cccnc4)cc23)c1F (stereo not shown)
Ans: ≤ 10000 nM
